Test: thallium flux activation in parental CHO cells, counter-screen for KCNQ1 potentiator project (AID 493006);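 for activation: fluorescence ratio of max minus min over baseline after K+ and Tl+ depolarization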
Details: parental CHO-K1 cells, FluxOR thallium flux, at 10 µM
The source made the active and inactive calls.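 Rule for the calls: active = duplicate-averaged activation above buffer control mean plus 5 SD of those controls; inactive = the rest.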
Outcome field: choose from active, inactive

O=C(NCC1CCCO1)c1cccc(Oc2ccccc2)c1 (stereo unspecified) | inactive

Qu. Assay outcome for "CC(=O)n1cc(N(C(=O)CCl)c2ccc(C)cc2)c2ccccc21" : what was it?
Ans. inactive

###

Assay: thallium flux activation in parental CHO cells, counter-screen for KCNQ1 potentiator project (AID 493006);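 for activation: fluorescence ratio of max minus min over baseline after K+ and Tl+ depolarization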
Details: parental CHO-K1 cells, FluxOR thallium flux, at 10 µM
Calls of active or inactive are those of the source.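 The calls were made as follows: active = duplicate-averaged activation above buffer control mean plus 5 SD of those controls; inactive = the rest.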
The reply should name one outcome from active, inactive

Qu. What classification did "CCCOc1ccc(C(=O)NNC(=S)NC(=O)c2cccs2)cc1" end up with in this test?
Ans. active

Qu. Per the records of this test, what outcome belongs to "COC(=O)[C@@H]1CCCN1C(=O)CCc1nnc(CCC2CCCCC2)o1" ?
Ans. inactive

Qu. What did the test return for CN(CC(=O)Nc1ccc(F)c(F)c1F)C(=O)CC1OC(=O)c2ccccc21 (stereo unspecified) ?
Ans. inactive

Qu. // param item: "COc1ccc(/C=C2\SC(=Nc3ccccc3OC)NC2=O)cc1" ; yields the recorded call
Ans. inactive

Qu. Short answer needed: outcome of this test for "CS(=O)(=O)N1CCc2cc(-c3csc(NC(=O)C(c4ccccc4)c4ccccc4)n3)ccc21" ?
Ans. inactive

Qu. How was "Cc1cc(N2CCN(C)CC2)nc2ccc(NC(=S)NCCCN3CCc4ccccc4C3)cc12" classified in this test?
Ans. inactive

Qu. In this assay, the call recorded for "CCCn1c(SCN2C(=O)c3ccccc3C2=O)nc2cc(Cl)ccc2c1=O" was what?
Ans. active

Qu. GET /call?item= CN(C(=O)c1cc(COc2c(F)cccc2F)on1)C1CCOC1 (stereo unspecified) returns the recorded outcome of this test.
Ans. inactive

Qu. Can you look up the reported call for "CC(C)c1nc(Cl)c(C#N)c2c1CCC2" for me?
Ans. inactive

Qu. Hi, sorry to bother you, what did the test record for "Cc1ccc(-n2c(C)cc(/C=N/NC(=O)c3ccncc3)c2C)c(C)c1" ?
Ans. inactive

Qu. Test call for this molecule, please: "CCn1c(SCC(=O)NC(=O)NCc2ccco2)nc2sc(C)c(C)c2c1=O"
Ans. active

Qu. How was CCCCCCCCCCCC(=O)NC(Cc1ccc(OC)c([N+](=O)[O-])c1)C(=O)O (stereo unspecified) classified in this test?
Ans. active

Qu. So what was the verdict on CN(C)CC1CCCCC1OC(=O)/C=C/c1ccc(Cl)cc1Cl (stereo unspecified) in this test?
Ans. inactive

Qu. Could you please tell me the result logged for "Cc1sc(N/N=C/c2ccco2)nc1-c1ccccc1" in this assay?
Ans. inactive

Qu. What classification did CCN(C(=O)COC(=O)c1ccccc1Nc1cccc(C)c1C)C1CCS(=O)(=O)C1 (stereo unspecified) end up with in this test?
Ans. inactive

Qu. Entry "Oc1c(N=NC(=S)Nc2ccccc2F)c2ccccc2n1Cc1ccccc1" : call = ?
Ans. active

Qu. Name the outcome recorded for "CCN(c1ccccc1)S(=O)(=O)c1ccc(OC)c(NC(=O)COc2ccc(C(C)=O)cc2)c1" in the assay.
Ans. inactive

Qu. # outcome recorded in this test, key = "N#C/C(=C\c1ccc(-c2ccccc2[N+](=O)[O-])o1)C(=O)Nc1nc(-c2cccs2)cs1"
Ans. active

Qu. Lab log entry: "O=c1c2cc(NC(=S)NCCCN3CCC(Cc4ccccc4)CC3)ccc2nc2n1CCCCC2" — outcome as called in the assay?
Ans. inactive

Qu. Kindly provide the recorded test outcome for the following molecule: "COc1cc(-c2noc(C)c2-c2ccc(N(C)C)nc2)cc(OC)c1OC"
Ans. inactive

Qu. Would you mind telling me which call this test gave "Cc1c(Cl)cccc1NC(=O)Cn1c(CCC(=O)O)ccc1-c1ccccc1" ?
Ans. inactive
